Each recorded value in this set is attributed to the supplement of paper PMC12042874.

testSummary: amyloid nucleation score (Sup35N fusion, yeast selection) (log enrichment); library NNK1; higher = more nucleation; inactive = no reads after selection;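 also: zero at mode of non-aggregating sequences after 7 days selection at 30°C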
property: amyloid nucleation score

>>> recordedresult("WICVGYIVTTCSPELGEYRQ")
"inactive"
>>> recordedresult("LRYFGL")
"inactive"
>>> recordedresult("PGRYSISGSEHMPVYLYTFH")
"inactive"
>>> recordedresult("NSIFLLSYLKLIFAVYA")
"inactive"
>>> recordedresult("MSLDAFV")
"inactive"

Then there is this substance:
Problem: May I ask what amyloid nucleation score has been recorded for IYNQESVEYQGTMYLHFRYW ?
Solution: inactive

---

testSummary: amyloid nucleation score (Sup35N fusion, yeast selection) (log enrichment); library NNK1; higher = more nucleation; inactive = no reads after selection
# label = true if amyloid nucleation score >= -0.01 else false

>>> cat("LFFTGVHRKF")
"true"
>>> cat("IGGCLETCCSLGDKLGRRKR")
"true"
>>> cat("NEGEVIAELIIFVNPWVTI")
"false"
>>> cat("FTSPVIKY")
"true"
>>> cat("CVAGLVDGKRKNVIRKWFWN")
"true"
>>> cat("EPKVSSEQKVFDSCYT")
"true"
>>> cat("SLRLARNGYIYAICRFLCYS")
"false"
>>> cat("GRAEAKLY")
"false"
>>> cat("DIRVIVRIYQSIINL")
"true"
>>> cat("NLICDLGNSVTMSVRDDQTV")
"false"

Problem: Reported amyloid nucleation score at or above -0.01? VLPLQKPRDVGSVISARQWG
Solution: true

Problem: Reported amyloid nucleation score at or above -0.01? RAIIGFSLSQRGYLPNTDLR
Solution: true

Problem: Reported amyloid nucleation score at or above -0.01? KCREIALHYPAYIPFVLIAY
Solution: false
